Data origin, for the record: ChEMBL document CHEMBL1201862

tested on: RPMI-8226; experiment: NCI tumour cell line growth inhibition, 48 h
Activity calls are given as the source filed them. No stated cut-off is given here; in the data, active = GI50 up to about 1.1 µM and inactive = higher.
Recorded measurements of GI50, one per entry

# Molecule, GI50
records = [
    ("COc1nc(NC2OC(COC(C)=O)C(OC(C)=O)C(OC(C)=O)C2OC(C)=O)c2c(OC(C)=O)cc(=O)oc2n1 (stereo not given)", "> 100 µM (inactive)"),
    ("O=Cc1cc(O)c(O)c(/C=N/n2c3ccccc3c3ccccc32)c1", "2.05 µM (inactive)"),
    ("C=CCC1(OC(C)=O)C2OC(=O)C1(O)OCC2O (stereo not given)", "> 100 µM (inactive)"),
    ("NNC1=NC(=O)NC(=O)C1", "> 100 µM (inactive)"),
    ("CC(=O)Oc1cc(OC(C)=O)c2cc3c(cc2c1OC(C)=O)C(=O)C1(CCCC1)C3=O", "2.29 µM (inactive)"),
]

----------
tested on: ACHN; test: NCI tumour cell line growth inhibition, 48 h
Active and inactive are the calls of the source. Cut-off read from the data, not from the text of the source: active = GI50 up to about 1.1 µM and inactive = higher.
Measured metric: GI50

# Smiles entry, Val
rows = [
    ("CCC/C(Cl)=N\\OC(=O)Nc1ccc(OC(F)(F)F)cc1", "2.19 µM (inactive)"),
    ("CC(C)=CCc1c2c(c3occ(-c4ccc(O)c(O)c4)c(=O)c3c1O)C=CC(C)(C)O2", "2.39 µM (inactive)"),
    ("O=c1[nH]c(=O)n(COCc2ccccc2)cc1Nc1ccc(Br)cc1", "> 100 µM (inactive)"),
    ("COc1cccc(-n2c3nc(=O)n(C)c(=O)c-3nc3ccccc32)c1", "3.18 µM (inactive)"),
    ("CCOC(=O)C(=O)/C(=C/N1C(=O)CC(=O)NC1=S)C(=O)OCC", "> 100 µM (inactive)"),
]

----------
Recorded GI50 for the following compounds
tested on: HOP-92; assay: NCI tumour cell line growth inhibition, 48 h
Calls of active or inactive are those of the source. Rule as the data show it: active = GI50 up to about 1.1 µM and inactive = higher.

# Compound, Experimental system, GI50
data = [
    ("O=C1CCc2cc3c(cc21)CC1(Cc2cc4c(cc2C1)CCCC4)C3", "HOP-92", "0.0489 µM (active)"),
    ("CN(C)/C=N/c1nc2c(ncn2C2OC(CO)C(O)C2O)c(=O)[nH]1 (stereo not given)", "HOP-92", "> 100 µM (inactive)"),
    ("C/C(=N\\Nc1nnc(S)n1N)c1c(O)cc(C)oc1=O", "HOP-92", "> 100 µM (inactive)"),
    ("O=C1NN(Cc2ccccc2)C(=O)N2CCC[C@@H]12", "HOP-92", "> 100 µM (inactive)"),
    ("COC1(OC)C2(Cl)C(Cl)=C(Cl)C1(Cl)C1c3ccc(C(C)=O)c4cccc(c34)C12 (stereo not given)", "HOP-92", "2.89 µM (inactive)"),
    ("CN(/N=N/c1[nH]cnc1C(N)=O)C1CCCCC1", "HOP-92", "55.1 µM (inactive)"),
    ("Cc1nnc2n1N=C(c1cc(F)c(Cl)cc1Cl)/C(=C/c1ccc(Cl)cc1)S2", "HOP-92", "19.6 µM (inactive)"),
    ("NC1CC2C3CCC2C1C3=O (stereo not given)", "HOP-92", "> 100 µM (inactive)"),
    ("CN(C)CC1CCC/C1=N/OC(=O)c1ccccc1 (stereo not given)", "HOP-92", "> 100 µM (inactive)"),
    ("CC(=O)Oc1cc(OC(C)=O)c2cc3c(cc2c1OC(C)=O)C(=O)C1(CCCC1)C3=O", "HOP-92", "15.1 µM (inactive)"),
]
